# Tested on: G-401
# method: cells
# Format: functional, cell-based
# conditions: Homo sapiens
# Description: SANGER: Inhibition of human G-401 cell growth in a cell viability assay.
pIC50: −log10 of the molar value.
experimental endpoint: pIC50

[[record]]
compound = "CC(C)=CC[C@@H](O)C1=CC(=O)c2c(O)ccc(O)c2C1=O [SHIKONIN]"
experimental_endpoint = "pIC50"
limit_operator = "="
reported_result = 6.63

[[record]]
compound = "C[C@]12O[C@H](C[C@]1(O)CO)n1c3ccccc3c3c4c(c5c6ccccc6n2c5c31)CNC4=O [LESTAURTINIB]"
experimental_endpoint = "pIC50"
limit_operator = "="
reported_result = 6.36

[[record]]
compound = "CC(=O)c1c(C)c2cnc(Nc3ccc(N4CCNCC4)cn3)nc2n(C2CCCC2)c1=O [PALBOCICLIB]"
experimental_endpoint = "pIC50"
limit_operator = "="
reported_result = 5.72

[[record]]
compound = "O=c1[nH]c2ccccc2n1C1CCN(Cc2ccc(-c3nc4cc5[nH]cnc5cc4nc3-c3ccccc3)cc2)CC1"
experimental_endpoint = "pIC50"
limit_operator = "<"
reported_result = 5.59

[[record]]
compound = "C/C(O)=C(\\C#N)C(=O)Nc1cc(Br)ccc1Br"
experimental_endpoint = "pIC50"
limit_operator = "<"
reported_result = 4.80

